# target.desc: DNA ligase 1 (Homo sapiens) (UniProt P18858)
# Sequence (P18858 whole entry): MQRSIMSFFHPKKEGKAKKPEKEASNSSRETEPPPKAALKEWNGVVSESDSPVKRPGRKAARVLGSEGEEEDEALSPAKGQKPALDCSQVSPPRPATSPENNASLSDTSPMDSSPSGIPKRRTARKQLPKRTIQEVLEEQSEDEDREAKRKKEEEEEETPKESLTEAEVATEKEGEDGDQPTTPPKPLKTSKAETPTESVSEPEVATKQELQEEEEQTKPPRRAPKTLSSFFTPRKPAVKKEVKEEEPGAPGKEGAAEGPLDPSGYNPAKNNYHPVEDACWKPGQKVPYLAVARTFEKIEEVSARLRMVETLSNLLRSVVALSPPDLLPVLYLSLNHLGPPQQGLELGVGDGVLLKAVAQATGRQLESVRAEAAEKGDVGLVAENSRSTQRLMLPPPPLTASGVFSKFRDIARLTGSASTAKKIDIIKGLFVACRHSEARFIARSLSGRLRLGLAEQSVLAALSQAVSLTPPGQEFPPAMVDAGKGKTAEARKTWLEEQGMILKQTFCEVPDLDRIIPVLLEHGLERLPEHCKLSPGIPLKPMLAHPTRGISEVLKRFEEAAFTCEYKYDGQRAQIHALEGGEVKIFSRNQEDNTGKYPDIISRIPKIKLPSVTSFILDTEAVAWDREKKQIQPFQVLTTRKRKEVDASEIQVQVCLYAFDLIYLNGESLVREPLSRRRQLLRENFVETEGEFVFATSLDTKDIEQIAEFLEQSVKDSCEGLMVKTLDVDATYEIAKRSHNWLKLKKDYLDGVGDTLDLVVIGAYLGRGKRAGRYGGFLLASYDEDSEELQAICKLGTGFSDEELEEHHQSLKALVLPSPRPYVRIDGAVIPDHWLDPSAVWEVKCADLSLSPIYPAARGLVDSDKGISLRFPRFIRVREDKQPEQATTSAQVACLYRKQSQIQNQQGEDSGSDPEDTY
# procedure.text: Inhibition of human Lig1 at 10 uM using double strand nicked DNA as substrate after 30 mins in presence of ATP by acrylamide-based fluorescence-assay
Collected inhibition values appear next to each entry.

molecule: COc1ccc(C(=O)/C=C/c2cc3c(c(C(C)(C)C)c2)OC(N)=C(C#N)C3c2c(C)[nH]c3ccc(Cl)cc23)cc1 (stereo not drawn)
inhibition: > 50%

molecule: Cc1[nH]c2ccccc2c1C1C(C#N)=C(N)Oc2c(C(C)C)cc(/C=C/C(=O)c3cccs3)cc21 (stereo not drawn)
inhibition: < 20%

molecule: Cc1ccc(C(=O)/C=C/c2cc3c(c(C(C)(C)C)c2)OC(N)=C(C#N)C3c2c(C)[nH]c3ccccc23)cc1 (stereo not drawn)
inhibition: < 20%

molecule: CCC(C)c1cc(/C=C/C(=O)c2cc(OC)c(OC)c(OC)c2)cc2c1OC(N)=C(C#N)C2c1c(C)[nH]c2ccccc12 (stereo not drawn)
inhibition: < 20%

Consider COc1ccc2[nH]c(C)c(C3C(C#N)=C(N)Oc4c(C(C)C)cc(/C=C/C(=O)c5cccs5)cc43)c2c1 (stereo not drawn) . Its measured inhibition is < 20%

// inhibition value for COc1ccc2[nH]c(C)c(C3C(C#N)=C(N)Oc4c3cc(/C=C/C(=O)c3ccc(C)cc3)cc4C(C)(C)C)c2c1 (stereo not drawn) : > 45%

inhibition recorded for this molecule, Cc1ccc(C(=O)/C=C/c2cc3c(c(C(C)(C)C)c2)OC(N)=C(C#N)C3c2c(C)[nH]c3ccc(Cl)cc23)cc1 (stereo not drawn) , is > 50%

The measured inhibition associated with COc1cc(C(=O)/C=C/c2cc3c(c(C(C)(C)C)c2)OC(N)=C(C#N)C3c2c(C)[nH]c3ccccc23)cc(OC)c1OC (stereo not drawn) reads < 20%

inhibition reading for Cc1[nH]c2ccccc2c1C1C(C#N)=C(N)Oc2c1cc(/C=C/C(=O)c1ccc(Cl)cc1)cc2C(C)(C)C (stereo not drawn) : > 50%

Sample COc1ccc2[nH]c(C)c(C3C(C#N)=C(N)Oc4c3cc(/C=C/C(=O)c3cccs3)cc4C(C)(C)C)c2c1 (stereo not drawn) ; inhibition observed: < 20%

The recorded inhibition for entry Cc1[nH]c2ccccc2c1C1C(C#N)=C(N)Oc2c1cc(/C=C/C(=O)c1cccs1)cc2C(C)(C)C (stereo not drawn) equals 69.4%

inhibition in this record for COc1ccc(C(=O)/C=C/c2cc3c(c(C(C)(C)C)c2)OC(N)=C(C#N)C3c2c(C)[nH]c3ccccc23)cc1 (stereo not drawn) : < 20%

Record Cc1cc(/C=C/C(=O)c2cccs2)cc2c1OC(N)=C(C#N)C2c1c(C)[nH]c2ccccc12 (stereo not drawn) . Reported inhibition: > 45%

----------
# Test system: HepG2
# procedure.text: Antiproliferative activity against human HepG2 cells at 10 uM after 48 hrs by MTT assay
# Format: functional, cell-based
Calls of active or inactive are those of the source. No cut-off for these calls is given here.
observed.property: Activity

compound: Cc1cc(/C=C/C(=O)c2cccs2)cc2c1OC(N)=C(C#N)C2c1c(C)[nH]c2ccccc12 (stereo not given)
target.desc: HepG2
Activity: Active

compound: COc1ccc2[nH]c(C)c(C3C(C#N)=C(N)Oc4c(C(C)C)cc(/C=C/C(=O)c5cccs5)cc43)c2c1 (stereo not given)
target.desc: HepG2
Activity: Active

compound: COc1ccc2[nH]c(C)c(C3C(C#N)=C(N)Oc4c3cc(/C=C/C(=O)c3cccs3)cc4C(C)(C)C)c2c1 (stereo not given)
target.desc: HepG2
Activity: Active

compound: Cc1[nH]c2ccccc2c1C1C(C#N)=C(N)Oc2c(C(C)C)cc(/C=C/C(=O)c3cccs3)cc21 (stereo not given)
target.desc: HepG2
Activity: Active

Form: item Cc1[nH]c2ccccc2c1C1C(C#N)=C(N)Oc2c1cc(/C=C/C(=O)c1cccs1)cc2C(C)(C)C (stereo not given) ; test system HepG2; Activity: Active
